# Test system: MDA-MB-231
# PROTOCOL_DESCRIPTION: NCI tumour cell line growth inhibition, 48 h
Calls of active or inactive are those of the source. No stated cut-off is given here; in the data, active = GI50 up to about 1.1 µM and inactive = higher.
Listed next: entries and their corresponding GI50.

Solved entries (count: 6):
COMPOUND	GI50
CN1CC=C(C#CC(C)(C)O)CC1	> 37.5 µM (inactive)
c1ccc2c(c1)N=c1ccccc1=P21c2ccccc2Nc2ccccc21	2.69 µM (inactive)
O=C1NC(=O)/C(=C/c2ccc(S(=O)(=O)N/N=C/c3ccc(Cl)cc3)cc2)N1	> 100 µM (inactive)
COc1cc(/C=C2\N=C(c3ccccc3)N(c3ccc4c(c3)Sc3cc(N5C(=O)/C(=C/c6cc(OC)c(OC)c(OC)c6)N=C5c5ccccc5)ccc3N4)C2=O)cc(OC)c1OC	25.7 µM (inactive)
NC(CCCCNC(=O)OCc1ccccc1)C(=O)NC(CCCCNC(=O)OCc1ccccc1)C(=O)ON1C(=O)CCC1=O (configuration not stated)	> 100 µM (inactive)
C=CCCCC1CCCNC1=O (configuration not stated)	> 100 µM (inactive)

Then this compound:
Query :: Given the compound `Cc1ccc(C)c(NC(=O)NCc2ccc(Cl)cc2)c1` , what is its reported GI50?
Result :: 20 µM (inactive)

----------
# Test system: Malme-3M
# PROTOCOL_DESCRIPTION: NCI tumour cell line growth inhibition, 48 h
Calls of active or inactive are those of the source. Rule as the data show it: active = GI50 up to about 1.1 µM and inactive = higher.
Outcomes you can answer with include only these: y = active, n = inactive

Some solved entries appear below for comparison.
COMPOUND	QUALITATIVE_LABEL
CCC1c2[nH]c3ccccc3c2C[C@H]2C(=O)NC(Cc3c[nH]c4ccccc34)C(=O)N12 (stereo not given in full)	n
COc1cc(O)c2c(=O)cc(C3(O)C=CC(=O)C=C3)oc2c1	y
C=C(C)[C@@H]1CC[C@@H]2C(=CC[C@]3(C)C([C@H](C)CC/C=C(/C)C(=O)O)CC[C@@]23C)[C@@]1(C)CCC(=O)O (stereo not given in full)	n
CN(C1=NCCO1)c1cccc2c1CCCC2	n

Query :: Hey, what did the test say about `CCOC(=O)NC1=C(N2CC2)C(=O)C(NC(=O)OCC)=C(N2CC2)C1=O` ?
Result :: n

Query :: Hey, what did the test say about COc1cccc2c1C(=O)C1=C(C2=O)C(O)CC(C)(C)O1 (stereo not given) ?
Result :: n

Query :: Hey, what did the test say about CCOC(=O)C1C(C)C2(C#N)C(=N)OC1(C)C2(C#N)C#N (stereo not given) ?
Result :: n

Query :: Hey, what did the test say about NCCCC(N)C(=O)O (stereo not given) ?
Result :: n

Query :: Hey, what did the test say about `NS(=O)(=O)c1nnc(NS(=O)(=O)c2ccc([N+](=O)[O-])cc2)s1` ?
Result :: n

Query :: Hey, what did the test say about `C/C(=N\NC(=S)N1CCN(c2ccccn2)CC1)c1cccc2cccnc12` ?
Result :: n

Query :: Hey, what did the test say about Cc1ccc(C2=CC(=O)OC(C[P+](c3ccccc3)(c3ccccc3)c3ccccc3)(c3ccccc3)O2)cc1 (stereo not given) ?
Result :: n

Query :: Hey, what did the test say about `COc1ccc2c(c1OC)C[C@@H]1c3c(cc4c(c3-2)OCO4)CCN1C` ?
Result :: n

Query :: Hey, what did the test say about `CC1(C)C(=O)C(C)(C)C1=NN` ?
Result :: n

----------
# System: SR
# PROTOCOL_DESCRIPTION: NCI tumour cell line growth inhibition, 48 h
Activity calls are given as the source filed them. Cut-off read from the data, not from the text of the source: active = GI50 up to about 1.1 µM and inactive = higher.
Outcomes you can answer with include only these: true (active), false (inactive)

Some solved entries appear below for comparison.
MOLECULE	QUALITATIVE_LABEL
CN(/N=C\c1ccc2ccccc2c1)C1=NCCCN1	false
O=C(c1cccs1)N(C(=S)N1CCN(c2ccccn2)CC1)C1CCCCC1	false
COc1ccc(N2C(=O)[C@H]3CC(C)c4c([nH]c5ccccc45)[C@H]3C2=O)cc1 (some centres not stated)	false
C1CCNCC1.O=C1NC(=S)N/C1=C/c1ccccc1O	false
COc1cc2c(cc1C[N+](C)(C)CSc1ccccc1)-c1ccccc1CC2	false
CCOC(=O)c1sc2nc(SC)nc3c2c1NCN3c1ccc(F)c(F)c1	false
O=C(O)CCCc1ccc2c(c1)CC1(C2)Cc2cc3c(cc2C1)CCCC3	false
Cc1cc2nc3c(C(OC4OC(CO)C(O)C(O)C4O)C(O)CO)nn(-c4ccccc4)c3nc2cc1C (configuration not stated)	false

Query :: Hey, what did the test say about CC1CC[C@@]2(OC1)O[C@H]1C[C@H]3[C@@H]4CC[C@H]5C[C@@H](OC6OC(CO)C(OC7OC(CO)C(OC8OC(CO)C(O)C(OC9OC(C)C(OC%10OC(C)C(O)C(O)C%10O)C(O)C9O)C8OC8OCC(O)C(O)C8O)C(O)C7O)C(O)C6O)CC[C@]5(C)[C@H]4CC(=O)[C@]3(C)[C@H]1[C@@H]2C (some centres not stated) ?
Result :: false

Query :: Hey, what did the test say about `CN1CCN(C(=S)N(C)C(=O)c2ccc(Cl)cc2)CC1` ?
Result :: false

Query :: Hey, what did the test say about `N/N=C(/C=C1\C(=O)Nc2ccccc21)c1ccccc1` ?
Result :: false

Query :: Hey, what did the test say about `CC(C)(C)C1=CC(=C2C=Cc3cc(O)ccc3O2)C=C(C(C)(C)C)C1=O` ?
Result :: true

Query :: Hey, what did the test say about `CN(C)C(=S)/N=c1\ss/c(=N/c2ccccc2)n1C` ?
Result :: false

Query :: Hey, what did the test say about `CS(=O)(=O)Nc1ccc(Nc2c3ccccc3nc3ccccc23)cc1` ?
Result :: true

Query :: Hey, what did the test say about `COc1cccc(NC(=O)CSc2nnc(-c3ccc(NC(C)=O)cc3)o2)c1` ?
Result :: false

Query :: Hey, what did the test say about `COc1cccc2c(Nc3ccc(S(=O)(=O)Nc4ncccn4)cc3)c3ccc([N+](=O)[O-])cc3nc12` ?
Result :: false

Query :: Hey, what did the test say about `COc1cccc(CCNc2c(C#N)c3nc4ccccc4n3c3ccccc23)c1` ?
Result :: true

Query :: Hey, what did the test say about Cc1c(O)c(OC2OC(CO)C(O)C(O)C2O)cc2c1CC[C@@H]1C2(C)C(=O)C[C@]2(C)[C@@H]([C@@](C)(O)C(=O)CCC(C)(C)O)[C@H](O)C[C@@]12C (some centres not stated) ?
Result :: false

Query :: Hey, what did the test say about `CCOc1ccc(/C=C(\Cl)c2ccc(OC)cc2)cc1` ?
Result :: false

Query :: Hey, what did the test say about `COC(=O)c1nn2ccc3ccccc3c2c1C(=O)OC` ?
Result :: false

Query :: Hey, what did the test say about `CN1CC=C(C#CC(C)(C)O)CC1` ?
Result :: false

----------
# System: NCI-H522
# PROTOCOL_DESCRIPTION: NCI tumour cell line growth inhibition, 48 h
The source made the active and inactive calls. Cut-off read from the data, not from the text of the source: active = GI50 up to about 1.1 µM and inactive = higher.
Outcomes you can answer with include only these: Yes (active), No (inactive)

MOLECULE	QUALITATIVE_LABEL
C=CCOc1cc2c(cc1C(C)c1ccc(OC)cc1)OCO2 (configuration not stated)	Yes
O=c1cc(O)cc2n1CCC2	No
CC(=O)NS(=O)(=O)c1ccc(NCc2cccc3c(=O)c4ccc(Cl)cc4oc23)cc1	No
CCOC(=O)C1=CC(C)(C(=O)OCC)Nc2c(nc(SC)[nH]c2=O)N1 (configuration not stated)	No
CCOC(=O)C1C(C)C2(C#N)C(=N)OC1(C)C2(C#N)C#N (configuration not stated)	No

Query :: Hey, what did the test say about CC1C2CC(CC2O)C1(C)C (configuration not stated) ?
Result :: No

Query :: Hey, what did the test say about Cc1cccc2c1Oc1cc(Cl)ccc1C2NC(=O)CCN1CCN(CCO)CC1 (configuration not stated) ?
Result :: No

Query :: Hey, what did the test say about `O=c1[nH]nc(-c2ccccc2)n1-n1cccc1` ?
Result :: No

Query :: Hey, what did the test say about `Brc1ccc2c(-c3nc(-c4c[nH]c5ccccc45)cs3)c[nH]c2c1` ?
Result :: No

Query :: Hey, what did the test say about O=C1NC(=O)C2C3C=CC(C12)C1C2C(=O)NC(=O)C2C31 (configuration not stated) ?
Result :: No

Query :: Hey, what did the test say about `CC(C)=C[C@H]1CCC2(OCCO2)[C@]1(C)CO` ?
Result :: No

Query :: Hey, what did the test say about `CCOC(=O)c1ccc(-c2ccc(Cl)cc2)[nH]1` ?
Result :: No

Query :: Hey, what did the test say about `CCOC(=O)C(=O)Nc1cccc(Cl)c1C` ?
Result :: No

Query :: Hey, what did the test say about CC1=C(CO)C(=O)O[C@@H]([C@@H](CO)[C@H]2CCC3C4C[C@@H](O)[C@@]5(O)CC=CC(=O)[C@]5(C)C4CC[C@@]32C)C1 (some centres not stated) ?
Result :: No

Query :: Hey, what did the test say about CC1CC[C@@]2(OC1)O[C@H]1C[C@H]3[C@@H]4CC[C@H]5C[C@@H](OC6OC(CO)C(OC7OC(CO)C(OC8OC(CO)C(O)C(OC9OC(C)C(OC%10OC(C)C(O)C(O)C%10O)C(O)C9O)C8OC8OCC(O)C(O)C8O)C(O)C7O)C(O)C6O)CC[C@]5(C)[C@H]4CC(=O)[C@]3(C)[C@H]1[C@@H]2C (some centres not stated) ?
Result :: No

Query :: Hey, what did the test say about Cc1c(O)c(OC2OC(CO)C(O)C(O)C2O)cc2c1CC[C@@H]1C2(C)C(=O)C[C@]2(C)[C@@H]([C@@](C)(O)C(O)CCC(C)(C)O)[C@H](O)C[C@@]12C (some centres not stated) ?
Result :: No

Query :: Hey, what did the test say about C=C/C(C)=C\CC1[C@](C)(O)CC[C@H]2C(C)(C)C(O)CC[C@]12C (some centres not stated) ?
Result :: No

Query :: Hey, what did the test say about `Cc1ccccc1NC(=N)Nc1ccccc1C` ?
Result :: No

Query :: Hey, what did the test say about CC(=O)OC(C)(C)CCC(=O)[C@](C)(O)[C@H]1[C@H](O)C[C@@]2(C)[C@@H]3CCc4c(cc(OC5OC(CO)C(O)C(O)C5O)c(O)c4C)C3(C)C(=O)C[C@]12C (some centres not stated) ?
Result :: No

Query :: Hey, what did the test say about O=C(Nc1ccc(C(F)(F)F)cc1[N+](=O)[O-])C(=O)C(C(=O)c1ccc2ccccc2c1)C1OC(=O)c2ccccc21 (configuration not stated) ?
Result :: No

Query :: Hey, what did the test say about `c1cc(-c2ccc(-c3ccc(-c4ccc(-c5cccc6nsnc56)[nH]4)c4nsnc34)[nH]2)c2nsnc2c1` ?
Result :: No

Query :: Hey, what did the test say about Cc1cnc(Cl)nc1C(C#N)c1nc2ccccc2s1 (configuration not stated) ?
Result :: No
